Biological target: Sa-ClpP (Staphylococcus aureus, UniProt Q2G036)
Construct: made in house; host or cells: E. coli BL21(DE3)
Assay: ADEP displacement fluorescence polarization assay (FP probe ADEP 2591)
Assay type: binding
*1 amine or outer side, *2 acyl side, *3 side chain or, on linkers, in order; H or OH if unused. Where a SMILES comes first, the peptide text is derived from it. Bridges are numbered along the chain shown (N, C = ends). [ ]: non-standard residue; d: D form. The star is where a group is joined. ξ: configuration not given here. Phe(3,5-F2) = N[CH](Cc1cc(F)cc(F)c1)C(=O)O; NH(4-OCF3-phenyl) = FC(F)(F)Oc1ccc(N*)cc1; X14 = O=C(C1CC(OP(=O)(O)O)CN1[*:1])[*:2]; Morpholine(3S-CO) = O=C(O)[C@@H]1COCCN1; Pro(4S-Me) = C[C@@H]1CN[C@H](C(=O)O)C1; Pro(4R-Me) = C[C@H]1CN[C@H](C(=O)O)C1; NH(3,4-Me2-phenyl) = Cc1ccc(N*)cc1C; Hyp = O=C(O)[C@@H]1C[C@@H](O)CN1; NMeT = CN[C@H](C(=O)O)[C@@H](C)O; Heptenoyl(2E) = CCCC/C=C/C(=O)*; NH(4-Me-phenyl) = Cc1ccc(N*)cc1; ξNMeThr = CNC(C(=O)O)[C@@H](C)O; aThr = C[C@H](O)[C@H](N)C(=O)O; ξPro(4ξ-Me) = CC1CNC(C(=O)O)C1; Pip = O=C(O)[CH]1CCCCN1; CO = O=C([*:1])[*:2]
readout: pIC50
Give bare numbers, as −log10 of the molar value.

compound	target system	pIC50
Cc1ccc(NC(=O)N[C@@H](Cc2cc(F)cc(F)c2)C(=O)N[C@H]2COC(=O)[C@@H]3C[C@@H](C)CN3C(=O)[C@H](C)NC(=O)[C@@H]3COCCN3C(=O)[C@@H]3C[C@@H](O)CN3C2=O)cc1 [Compound 317] ({NH(4-Me-phenyl)-CO}-[Phe(3,5-F2)]S[Hyp][Morpholine(3S-CO)]A[Pro(4R-Me)]; ester 2-C)	Sa-ClpP (Staphylococcus aureus, UniProt Q2G036)	5.14

Value sought for every listed compound: pIC50.
1. Cc1ccc(NC(=O)N[C@@H](Cc2cc(F)cc(F)c2)C(=O)N[C@@H]2C(=O)N3CCC[C@H]3C(=O)N(C)[C@@H]([C@@H](C)O)C(=O)N[C@@H](C)C(=O)N3C[C@@H](C)C[C@H]3C(=O)O[C@H]2C)cc1 [Compound 35] ({NH(4-Me-phenyl)-CO}-[Phe(3,5-F2)][aThr]P[NMeT]A[Pro(4S-Me)]; ester 2-C)
2. Cc1ccc(NC(=O)NC(Cc2cc(F)cc(F)c2)C(=O)NC2C(=O)N3CC(OP(=O)(O)O)CC3C(=O)N3CCCCC3C(=O)NC(C)C(=O)N3CC(C)CC3C(=O)OC2C)cc1C (stereo not shown) [Compound 192] ({NH(3,4-Me2-phenyl)-CO}-[Phe(3,5-F2)]T[X14][Pip]A[ξPro(4ξ-Me)]; ester 2-C; configuration not given here)
3. Cc1ccc(NC(=O)N[C@@H](Cc2cc(F)cc(F)c2)C(=O)N[C@H]2COC(=O)[C@@H]3C[C@@H](C)CN3C(=O)[C@H](C)NC(=O)C([C@@H](C)O)N(C)C(=O)[C@@H]3CCCN3C2=O)cc1 (stereo partly drawn) [Compound 322] ({NH(4-Me-phenyl)-CO}-[Phe(3,5-F2)]SP[ξNMeThr]A[Pro(4R-Me)]; ester 2-C)
4. C[C@@H]1C[C@H]2C(=O)OC[C@H](NC(=O)[C@H](Cc3cc(F)cc(F)c3)NC(=O)Nc3ccc4c(c3)OCO4)C(=O)N3CCC[C@H]3C(=O)N3CCCC[C@H]3C(=O)N[C@@H](C)C(=O)N2C1
5. CCCC/C=C/C(=O)N[C@@H](Cc1cc(F)cc(F)c1)C(=O)N[C@@H]1C(=O)N2C[C@H](O)C[C@H]2C(=O)N2CCOC[C@H]2C(=O)N[C@@H](C)C(=O)N2C[C@H](C)C[C@H]2C(=O)O[C@H]1C [Compound 309] ({Heptenoyl(2E)}-[Phe(3,5-F2)][aThr][Hyp][Morpholine(3S-CO)]A[Pro(4R-Me)]; ester 2-C)
6. C[C@@H]1C[C@H]2C(=O)O[C@@H](C)[C@H](NC(=O)[C@H](Cc3cc(F)cc(F)c3)NC(=O)Nc3ccc(OC(F)(F)F)cc3)C(=O)N3CCC[C@H]3C(=O)N(C)[C@@H]([C@@H](C)O)C(=O)N[C@@H](C)C(=O)N2C1 [Compound 41] ({NH(4-OCF3-phenyl)-CO}-[Phe(3,5-F2)][aThr]P[NMeT]A[Pro(4R-Me)]; ester 2-C)

Response given:
1: 5.18; 2: 5.13; 3: 5.07; 4: 5.24; 5: 5.14; 6: 5.12

Every entry's value here was drawn from patent US10457707B2.
